measured.on: CpLIP2 lipase (Candida parapsilosis)
assay.summary: Quenching of CpLIP2 intrinsic tryptophan fluorescence by flavonols (Stern–Volmer, Lehrer, van't Hoff analysis)
Format: binding
condition.notes: Kd (dissociation constant), 318 K
experimental.readout: pKd
pKd here is simply -log10 of the concentration when that concentration is written in mol/L.

{"substance.smiles": "O=c1c(O)c(-c2ccc(O)cc2)oc2cc(O)cc(O)c12", "experimental.readout": "pKd", "quantitative.readout": 4.80}

For the molecule shown here, `O=c1c(O)c(-c2ccc(O)c(O)c2)oc2cc(O)cc(O)c12` , give the reported pKd.
4.60

Which value of pKd has been reported for `O=c1c(O)c(-c2ccccc2)oc2cc(O)cc(O)c12` in the records?
4.96

Given `O=c1c(O)c(-c2cc(O)c(O)c(O)c2)oc2cc(O)cc(O)c12` , state its recorded pKd.
5.00

----------
measured.on: CpLIP2 lipase (Candida parapsilosis)
assay.summary: Quenching of CpLIP2 intrinsic tryptophan fluorescence by flavonols (Stern–Volmer, Lehrer, van't Hoff analysis)
Assay type: binding
condition.notes: 298 K
n (number of binding sites) values by entry
The answer should be a number; do not append a unit.

Some solved entries appear below for comparison.
{"substance.smiles": "O=c1c(O)c(-c2cc(O)c(O)c(O)c2)oc2cc(O)cc(O)c12", "n (number of binding sites)": 0.43}
{"substance.smiles": "O=c1c(O)c(-c2ccccc2)oc2cc(O)cc(O)c12", "n (number of binding sites)": 0.58}
{"substance.smiles": "O=c1c(O)c(-c2ccc(O)c(O)c2)oc2cc(O)cc(O)c12", "n (number of binding sites)": 0.78}

Consider the record given below.
n (number of binding sites) lookup needed for `O=c1c(O)c(-c2ccc(O)cc2)oc2cc(O)cc(O)c12` , thanks.
0.63

----------
measured.on: CpLIP2 lipase (Candida parapsilosis)
assay.summary: Quenching of CpLIP2 intrinsic tryptophan fluorescence by flavonols (Stern–Volmer, Lehrer, van't Hoff analysis)
Format: binding
condition.notes: 298 K
experimental.readout: Ka (association constant) (L/mol)
Field format: number, assumed L/mol, no unit text.

The cases that follow already have their Ka (association constant) on record.
{"substance.smiles": "O=c1c(O)c(-c2ccccc2)oc2cc(O)cc(O)c12", "display.unit": "L/mol", "Ka (association constant)": 323}
{"substance.smiles": "O=c1c(O)c(-c2ccc(O)c(O)c2)oc2cc(O)cc(O)c12", "display.unit": "L/mol", "Ka (association constant)": 2034}

Alright, here's another compound for you.
Requested field: Ka (association constant). Item: `O=c1c(O)c(-c2cc(O)c(O)c(O)c2)oc2cc(O)cc(O)c12`
45.21

----------
measured.on: CpLIP2 lipase (Candida parapsilosis, UniProt Q8NIN8)
Sequence (Q8NIN8 entry or part of it): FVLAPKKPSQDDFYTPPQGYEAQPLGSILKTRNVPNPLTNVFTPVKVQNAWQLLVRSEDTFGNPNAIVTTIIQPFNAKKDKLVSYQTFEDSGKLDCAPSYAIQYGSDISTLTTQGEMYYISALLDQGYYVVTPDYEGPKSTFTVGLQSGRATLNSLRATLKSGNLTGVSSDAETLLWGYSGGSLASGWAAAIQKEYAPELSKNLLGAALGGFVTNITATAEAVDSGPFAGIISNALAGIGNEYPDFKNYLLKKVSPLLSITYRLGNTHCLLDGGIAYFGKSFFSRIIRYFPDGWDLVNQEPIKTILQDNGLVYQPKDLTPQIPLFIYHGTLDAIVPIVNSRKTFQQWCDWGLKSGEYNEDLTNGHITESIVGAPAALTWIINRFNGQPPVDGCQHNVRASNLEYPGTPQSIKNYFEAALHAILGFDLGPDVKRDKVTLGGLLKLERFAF
assay.summary: Fluorescence resonance energy transfer between CpLIP2 and flavonols (Förster theory); also: values in Å
Type: binding
condition.notes: 2.5 µM, 308 K, pH 7.0
experimental.readout: r (distance between acceptor and donor) (Å)
Reply numerically in Å, unit not repeated.

{"compound": "O=c1c(O)c(-c2ccc(O)cc2)oc2cc(O)cc(O)c12 [KAE, kaempferol]", "display.unit": "Å", "r (distance between acceptor and donor)": 50.1}

So what's the measured r (distance between acceptor and donor) for this one? O=c1c(O)c(-c2cc(O)c(O)c(O)c2)oc2cc(O)cc(O)c12 [MYR, myricetin]
46.7

Look at this compound and give its reported r (distance between acceptor and donor). O=c1c(O)c(-c2ccccc2)oc2cc(O)cc(O)c12 [GAL, galangin]
28.5

GET /values?readout=r (distance between acceptor and donor)&item= O=c1c(O)c(-c2ccc(O)c(O)c2)oc2cc(O)cc(O)c12 [QUE, quercetin]
58.7
